# procedureText: growth effects on S. cerevisiae YJM789 – YJM789 clinical isolate, OD600, 24 h, basal, primary screen (AID 1089);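 further: growth of clinical yeast isolate S. cerevisiae YJM 789 seeded 1000 cells per well; test concentration not given here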
# measurementConditions: higher = more signal, called active from +8 up or from −8 down
measuredParameter: z-score
Answer with a bare number; do not write a unit.

// query Give the measured z-score of CC1CC/C=C\[C@H]2OC34C=CCN(Cc5ccccc5)C(=O)[C@H]3N(C(C)CO)C(=O)[C@@H]4C2C(=O)O1 (stereo partly specified) .
// result -0.875

// query Give the measured z-score of `C=C(/C(=C/C[C@H](OC(C)=O)c1ccc(OCCO)cc1)c1cc(C(=O)OC)ccc1OC)C(C)C` .
// result 0.71

----------
# procedureText: probe aShh binding to arrayed compounds – biochemical, biotinylated probe, 635/667 nm fluorescence, primary screen (AID 1114);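 further: probe is biotin-labelled aShh protein from a stem cell growth factor screen; measures binding of labelled protein to compounds printed on the slide; score merges feature fluorescence at 667 nm with signal-to-noise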
# measurementConditions: small-molecule microarray, higher = more signal
measuredParameter: composite z-score
Answer with a bare number; do not write a unit.

Solved cases (3 shown):
molecule	measuredParameter	observedResult
OB1C=CCC(CCc2ccccc2)O1 (centres undefined)	composite z-score	-0.117
COc1cc(CO)cc(I)c1O[C@H]1C=C(C(=O)NCCO)C[C@@H](N(C(=O)c2cc3ccccc3oc2=O)C2CCCCCC2)[C@@H]1O	composite z-score	-0.349
COCCOC(=O)N1C(=O)[C@@]2(c3ccccc31)[C@H](c1ccc(OCCO)cc1)N1[C@H](c3ccccc3)[C@H](c3ccccc3)OC(=O)[C@H]1[C@@H]2C(=O)N1CCc2cc(OC)c(OC)cc2C1	composite z-score	0.0141

Shift focus to the following entry.
// query Give the measured composite z-score of `COc1cc2c(cc1OC)CN(C(=O)[C@H]1[C@@H]3C(=O)O[C@@H](c4ccccc4)[C@@H](c4ccccc4)N3[C@@H](c3ccccc3OCCO)[C@]13C(=O)Nc1ccc(C#CCCO)cc13)CC2` .
// result -0.138

----------
# systemTested: NADPH oxidase 4 (Homo sapiens) (UniProt Q9NPH5)
# Sequence (Q9NPH5 whole entry, looked up): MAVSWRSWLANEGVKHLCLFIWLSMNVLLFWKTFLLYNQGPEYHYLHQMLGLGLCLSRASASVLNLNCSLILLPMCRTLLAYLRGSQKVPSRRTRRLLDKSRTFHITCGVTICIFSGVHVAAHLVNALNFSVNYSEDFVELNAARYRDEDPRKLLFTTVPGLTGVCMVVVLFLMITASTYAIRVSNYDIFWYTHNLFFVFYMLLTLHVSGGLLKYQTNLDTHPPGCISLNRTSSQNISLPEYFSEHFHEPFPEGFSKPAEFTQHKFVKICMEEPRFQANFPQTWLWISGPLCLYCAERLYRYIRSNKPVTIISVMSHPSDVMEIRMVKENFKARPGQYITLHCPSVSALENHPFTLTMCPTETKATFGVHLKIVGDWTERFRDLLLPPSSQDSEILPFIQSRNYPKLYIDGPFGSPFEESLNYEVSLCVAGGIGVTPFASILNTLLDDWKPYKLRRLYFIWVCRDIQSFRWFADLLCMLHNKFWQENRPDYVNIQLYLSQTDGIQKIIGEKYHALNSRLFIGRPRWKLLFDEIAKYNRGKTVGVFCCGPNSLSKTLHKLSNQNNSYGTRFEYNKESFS
# procedureText: compounds shifting NOX4 Amplex Red fluorescence – cell-based, HEK293-NOX4, tetracycline-induced, NOX inhibitor project, primary screen (AID 1160)
# measurementConditions: HEK293-NOX4, Amplex Red H2O2 fluorescence, 45 min; higher = more signal, called active from +8 up or from −8 down
measuredParameter: z-score
Answer with a bare number; do not write a unit.

molecule	systemTested	z-score
O=C1O[C@@H](c2ccccc2)[C@@H](c2ccccc2)N2[C@@H](c3ccc(OCCO)cc3)[C@]3(C(=O)Nc4ccc(C#CCCO)cc43)[C@@H](C(=O)NC[C@H](O)c3ccccc3)[C@H]12	NADPH oxidase 4 (Homo sapiens) (UniProt Q9NPH5)	1.71
COCCOC(=O)N1C(=O)[C@@]2(c3ccccc31)[C@H](c1ccc(OCCO)cc1)N1[C@H](c3ccccc3)[C@H](c3ccccc3)OC(=O)[C@H]1[C@@H]2C(=O)N1CCc2cc(OC)c(OC)cc2C1	NADPH oxidase 4 (Homo sapiens) (UniProt Q9NPH5)	1.52
COc1ccc([Si](C)(C)[C@H]2[C@H](CCO)O[C@@]3(C(=O)N(Cc4ccccc4)c4ccc(N5CCCCC5=O)cc43)[C@@H]2C)cc1	NADPH oxidase 4 (Homo sapiens) (UniProt Q9NPH5)	0.636
CCCCN1CC=CC23O[C@@H]4C=CCOC(=O)[C@@H]4[C@H]2C(=O)N(CCCCCCO)[C@@H]3C1=O (stereo partly drawn)	NADPH oxidase 4 (Homo sapiens) (UniProt Q9NPH5)	-0.282
C=CCNC(=O)[C@@H]1[C@H]2C(=O)O[C@H](c3ccccc3)[C@H](c3ccccc3)N2[C@H](c2ccc(OCCO)cc2)[C@@]12C(=O)N(C(=O)OCCOC)c1ccc(C#CCNC(N)=O)cc12	NADPH oxidase 4 (Homo sapiens) (UniProt Q9NPH5)	-0.213

// query Give the measured z-score of `C[N+](C)(C)CCCCCCNC(=O)[C@H]1C[C@H]2C(=O)N[C@@H](Cc3ccccc3)C(=O)N2[C@H]1c1cccc(OCCO)c1` .
// result 0.576

// query Give the measured z-score of `CN(C)CCCCNC(=O)[C@@H]1C[C@@H]2C(=O)N[C@@H](CCCCN)C(=O)N2[C@@H]1c1ccc(O)cc1` .
// result 1.28

// query Give the measured z-score of `CC(C)[C@@H](C(=O)O)n1cc(C2(O)CCCCC2)nn1` .
// result -0.176

----------
# systemTested: Torsin-1A (Homo sapiens)
# procedureText: TOR1A wild-type binding on microarray – cell lysate, small-molecule microarray, lysate, 635/667 nm, primary screen (AID 1149)
# measurementConditions: COS7 hTOR1A-WT lysate, 635 nm fluorescence, higher = more signal
This listing pairs molecules with measured composite z-score.
Answer with a bare number; do not write a unit.

molecule	measuredParameter	observedResult
CCOC(=O)C[C@H]1[C@H](OC(=O)c2ccc(C(=O)c3ccccc3)cc2)[C@@H](NC(=O)Cc2ccc(OC)cc2)c2cc(OCCCO)ccc2N1C(=O)c1ccc2ccccc2n1	composite z-score	-0.202
CO[C@H]1O[C@H](CO)[C@@H](OC(=O)Nc2cccc(F)c2)[C@H](OC(=O)Nc2ccccc2)[C@H]1OC(=O)Nc1ccccc1	composite z-score	1.28
COc1ccc([Si](C)(C)[C@@H]2[C@@H](CCn3cc(CCO)nn3)O[C@]3(C(=O)N(Cc4cccc(N5C(=O)c6cccc7cccc5c67)c4)c4ccccc43)[C@H]2C)cc1	composite z-score	0.119
C=CCOC(=O)[C@H]1[C@@H]2C(=O)O[C@@H](c3ccccc3)[C@@H](c3ccccc3)N2[C@@H](c2ccc(OCCOC(=O)[C@H]3C[C@H]4C(=O)N[C@@H](CCCCN(C)C)C(=O)N4[C@H]3c3cccc(OCCO)c3)cc2)[C@]12C(=O)Nc1ccc(I)cc12	composite z-score	0.166
CC(C)CNC(=O)[C@@]1(Cc2ccccc2I)c2ccccc2C(=O)N(Cc2ccccc2C(F)(F)F)[C@H]1c1ccc(CO)cc1	composite z-score	-0.177
CC(=O)n1cc(C(O)C2C=CC3C(=O)NC(=O)C3N2Nc2ccccn2)c2ccccc21 (centres undefined)	composite z-score	0.865
O=C1C2C=CC(C(O)c3ccc4c(c3)OCO4)N(Nc3ccc([N+](=O)[O-])cc3)C2C(=O)N1c1ccccc1 (centres undefined)	composite z-score	-0.0053
CC#CC(=O)Oc1ccc(Br)cc1C=CC(=O)OCC	composite z-score	-0.0177
O=C(NC1CC1)[C@@H]1c2ccccc2C(=O)N(C2Cc3ccccc3C2)[C@H]1c1ccc(CO)cc1	composite z-score	0.795
CCOC(=O)C[C@H]1[C@H](OC(=O)c2ccc(-c3ccccc3)cc2)[C@@H](NC(=O)c2ccccc2)c2cc(OCCCO)ccc2N1C(=O)c1ccc2ccccc2n1	composite z-score	0.181

// query Give the measured composite z-score of `CN(C)CCCCNC(=O)[C@@H]1C[C@@H]2C(=O)N[C@@H](CCCCN)C(=O)N2[C@@H]1c1ccc(O)cc1` .
// result 0.584

// query Give the measured composite z-score of `C=CCNC(=O)[C@@H]1[C@H]2C(=O)O[C@H](c3ccccc3)[C@H](c3ccccc3)N2[C@H](c2ccc(OCCO)cc2)[C@@]12C(=O)N(C(=O)OCCOC)c1ccc(C#CCC(C(=O)OC)C(=O)OC)cc12` .
// result 0.126

// query Give the measured composite z-score of `COc1ccc(CCNC(=O)[C@@]2(c3ccc([N+](=O)[O-])cc3)CC(=O)N(CC34CC5CC(CC(C5)C3)C4)[C@@H]2c2ccc(CO)cc2I)cc1` .
// result 0.292

// query Give the measured composite z-score of `COC(=O)[C@@]1(Cc2ccc(OC)cc2)[C@H]2c3cc(C(=O)N4CCCC4)n(CCc4ccc(O)c(O)c4)c3C[C@H]2CN1C(=O)c1ccccc1` .
// result -0.252

// query Give the measured composite z-score of `C=CCNC(=O)[C@H]1[C@@H]2C(=O)O[C@@H](c3ccccc3)[C@@H](c3ccccc3)N2[C@@H](c2ccc(O)cc2)[C@]12C(=O)Nc1ccc(C#CCCO)cc12` .
// result -0.944

// query Give the measured composite z-score of `C=C(/C(=C/C[C@H](OC(C)=O)c1ccc(OCCO)cc1)c1cc(C(=O)OC)ccc1OC)C(C)C` .
// result 0.287

----------
# systemTested: NADPH oxidase 2 (Homo sapiens) (UniProt P04839)
# Sequence (P04839 whole entry, looked up): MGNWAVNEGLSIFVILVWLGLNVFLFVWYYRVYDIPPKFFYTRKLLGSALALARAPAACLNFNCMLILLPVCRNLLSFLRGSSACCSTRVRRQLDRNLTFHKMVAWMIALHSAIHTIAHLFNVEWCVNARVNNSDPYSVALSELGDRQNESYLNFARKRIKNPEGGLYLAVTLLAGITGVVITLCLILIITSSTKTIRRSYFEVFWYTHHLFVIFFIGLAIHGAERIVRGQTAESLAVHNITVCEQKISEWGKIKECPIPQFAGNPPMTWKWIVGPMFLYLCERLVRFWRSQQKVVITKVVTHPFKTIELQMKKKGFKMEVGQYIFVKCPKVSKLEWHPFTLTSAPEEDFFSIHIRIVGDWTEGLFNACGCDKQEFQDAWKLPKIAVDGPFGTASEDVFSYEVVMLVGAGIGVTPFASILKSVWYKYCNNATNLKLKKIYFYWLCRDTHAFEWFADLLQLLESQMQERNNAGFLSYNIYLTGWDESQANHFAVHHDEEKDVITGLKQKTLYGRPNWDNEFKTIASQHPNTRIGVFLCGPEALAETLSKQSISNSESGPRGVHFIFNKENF
# procedureText: compounds shifting NOX2 Amplex Red fluorescence – cell-based, HEK293-NOX2, PMA-stimulated, NOX inhibitor project, primary screen (AID 1159); further: test concentration not given here
# measurementConditions: 45 min, higher = more signal, called active from +8 up or from −8 down
measuredParameter: z-score
Answer with a bare number; do not write a unit.

compound	observedResult
COCCOC(=O)N1C(=O)[C@@]2(c3cc(C#CC4(O)CCCCCC4)ccc31)[C@H](c1ccccc1OCCO)N1[C@H](c3ccccc3)[C@H](c3ccccc3)OC(=O)[C@H]1[C@@H]2C(=O)N1CCc2cc(OC)c(OC)cc2C1	1.25

// query Give the measured z-score of CCN(CC)c1ccc(N2CC=CC34O[C@@H]5C=CCOC(=O)[C@@H]5[C@H]3C(=O)N(CCCCCCO)[C@@H]4C2=O)cc1 (some centres undefined) .
// result -0.262

// query Give the measured z-score of [N-]=[N+]=Nc1ccccc1C[C@]1(C(=O)NCC(O)CO)N=C(c2ccc(OCCCO)cc2)O[C@H]1c1ccccc1 (some centres undefined) .
// result 1.34

// query Give the measured z-score of `CN(C)CCCCCCNC(=O)[C@@H]1C[C@@H]2C(=O)N[C@@H](CCCC[N+](C)(C)C)C(=O)N2[C@@H]1c1ccc(O)cc1` .
// result -1.47
